The reported measurements were obtained from patent US20220347096A1.

Test: Plasma CBD profile and PK after IV administration
Type: in vivo
Conditions: female, BALB/C, mouse, in vivo; mice, IV 12 mg/kg
OBSERVED_PROPERTY: Tmax (min)
Kindly provide the numeric value in min only, without the unit symbol.

Prompt: Return reported Tmax; argument: C=C(C)[C@@H]1CCC(C)=C[C@H]1c1c(O)cc(CCCCC)cc1O [CBD]
Completion: 4.98
